# PROTOCOL_DESCRIPTION: in vivo
# ASSAY_CONDITIONS: female, athymic nude, mouse, tumor, iv

COMPOUND: CCCCNC(=O)N[C@H]1CSCc2cc(CSCCNC(=O)CN3CCN(CC(=O)O)CCN(CC(=O)O)CC3)cc(c2)CSCC(C(=O)O)NC(=O)[C@H](Cc2ccccc2)NC(=O)[C@H](CCC(N)=O)NC(=O)[C@H]([C@@H](C)O)NC(=O)[C@@H]2CCCN2C(=O)[C@@H]2CCCN2C1=O (stereo partly drawn)
tissue uptake at 3 h (%ID/g): 9.53
//
COMPOUND: CCCC[C@H](NC(=O)CCC(=O)NCCCOCCOCCOCCCNC(=O)CCC(C(=O)O)N1CCN(CC(=O)O)CCN(CC(=O)O)CC1)C(=O)N[C@H]1CSCc2cccc(c2)CSCC(C(=O)O)NC(=O)[C@H](Cc2ccccc2)NC(=O)[C@H](CCC(N)=O)NC(=O)[C@H]([C@@H](C)O)NC(=O)[C@@H]2CCCN2C(=O)[C@@H]2CCCN2C1=O (stereo partly drawn)
tissue uptake at 3 h (%ID/g): 5.49
//
COMPOUND: CCCC[C@H](NC(=O)CCC(=O)NCCCOCCOCCOCCCNC(=O)CN1CCN(CC(=O)O)CCN(CC(=O)O)CC1)C(=O)N[C@H]1CSCc2cccc(c2)CSCC(C(=O)O)NC(=O)[C@H](Cc2ccccc2)NC(=O)[C@H](CCC(N)=O)NC(=O)[C@H]([C@@H](C)O)NC(=O)[C@@H]2CCCN2C(=O)[C@@H]2CCCN2C1=O (stereo partly drawn)
tissue uptake at 3 h (%ID/g): 6.25

----------
# PROTOCOL_DESCRIPTION: Pharmacokinetic study in mice (plasma, NCA)
# ASSAY_CONDITIONS: mouse, intravenous, 40 nmol/kg, Vz, mouse plasma

MOL: CCCCCC(=O)N[C@H]1CSCc2cc(CSCCNC(=O)CN3CCN(CC(=O)O)CCN(CC(=O)O)CCN(CC(=O)O)CC3)cc(c2)CSC[C@@H](C(=O)O)NC(=O)[C@H](Cc2ccccc2)NC(=O)[C@H](CCC(N)=O)NC(=O)[C@H]([C@@H](C)O)NC(=O)[C@@H]2CCCN2C(=O)[C@@H]2CCCN2C1=O
Vd: 0.53 L/kg

----------
# SYSTEM_UNDER_TEST: Human recombinant FAP (Homo sapiens, UniProt Q12884)
# Sequence (Q12884 whole entry): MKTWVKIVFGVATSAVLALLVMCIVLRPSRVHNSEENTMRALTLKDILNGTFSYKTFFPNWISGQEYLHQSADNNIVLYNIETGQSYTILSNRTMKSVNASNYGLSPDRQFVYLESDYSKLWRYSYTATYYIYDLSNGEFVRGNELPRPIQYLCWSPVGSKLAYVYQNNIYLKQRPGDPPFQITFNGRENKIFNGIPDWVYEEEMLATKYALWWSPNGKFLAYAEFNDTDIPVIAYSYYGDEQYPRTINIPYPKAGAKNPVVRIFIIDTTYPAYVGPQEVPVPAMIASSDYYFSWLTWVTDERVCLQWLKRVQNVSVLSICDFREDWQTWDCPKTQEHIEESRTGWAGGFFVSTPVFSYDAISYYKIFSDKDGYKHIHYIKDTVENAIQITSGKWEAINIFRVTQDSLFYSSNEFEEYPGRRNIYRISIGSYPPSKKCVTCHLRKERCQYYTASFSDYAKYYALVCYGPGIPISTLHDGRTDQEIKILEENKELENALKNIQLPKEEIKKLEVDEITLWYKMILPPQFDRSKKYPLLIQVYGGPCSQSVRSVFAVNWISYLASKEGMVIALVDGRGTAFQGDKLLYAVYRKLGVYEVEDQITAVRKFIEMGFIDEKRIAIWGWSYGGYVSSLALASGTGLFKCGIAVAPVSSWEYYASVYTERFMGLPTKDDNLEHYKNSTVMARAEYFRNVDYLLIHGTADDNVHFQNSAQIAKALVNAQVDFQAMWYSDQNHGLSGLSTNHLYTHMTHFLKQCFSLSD
# PROTOCOL_DESCRIPTION: FRET-based FAP protease activity assay
# Assay type: biochemical
# Parameters: purchased R&D systems 3715-SE
# ASSAY_CONDITIONS: pIC50 Category (Activity), FRET-peptide substrate, 37° C.
pIC50: −log10 of the molar value. Numbered stars: 1 amine (or outer) side, 2 acyl side, 3 side chain; on linkers, the order of the positions; unused ones are H or OH. Bridge positions count the residues as written; N and C are the ends. Square brackets hold non-standard residues; d marks the D form. Peptide text beside a SMILES is read from it. * marks the point of attachment. TBMB(SCH2CH2NH-DOTA) = O=C(O)CN1CCN(CC(=O)O)CCN(CC(=O)NCCSCc2cc(C[*:1])cc(C[*:2])c2)CCN(CC(=O)O)CC1; CO = O=C([*:1])[*:2]; Sar = CNCC(=O)O; NHBu = CCCCN*

COMPOUND: CCOCCC(=O)N[C@H]1CSCc2cc(CSCCNC(=O)CN3CCN(CC(=O)O)CCN(CC(=O)O)CCN(CC(=O)O)CC3)cc(c2)CSC[C@@H](C(=O)O)NC(=O)[C@H](Cc2ccccc2)NC(=O)[C@H](CCC(N)=O)NC(=O)[C@H]([C@@H](C)O)NC(=O)[C@@H]2CCCN2C(=O)[C@@H]2CCCN2C1=O
SYSTEM_UNDER_TEST: Human recombinant FAP (Homo sapiens, UniProt Q12884)
pIC50: > 8.00
--
COMPOUND: CC(C)CCC(=O)N[C@H]1CSCc2cc(CSCCNC(=O)CN3CCN(CC(=O)O)CCN(CC(=O)O)CCN(CC(=O)O)CC3)cc(c2)CSC[C@@H](C(=O)O)NC(=O)[C@H](Cc2ccccc2)NC(=O)[C@H](CCC(N)=O)NC(=O)[C@H]([C@@H](C)O)NC(=O)[C@@H]2CCCN2C(=O)[C@@H]2CCCN2C1=O
SYSTEM_UNDER_TEST: Human recombinant FAP (Homo sapiens, UniProt Q12884)
pIC50: > 8.00
--
COMPOUND: CCCCNC(=O)N[C@H]1CSCc2cc(CSCCNC(=O)CN3CCN(CC(=O)O)CCN(CC(=O)O)CCN(CC(=O)O)CC3)cc(c2)CSC[C@@H](C(N)=O)NC(=O)[C@H](Cc2ccccc2)NC(=O)[C@H](CCC(N)=O)NC(=O)[C@H]([C@@H](C)O)NC(=O)[C@@H]2CCCN2C(=O)[C@@H]2CCCN2C1=O
SYSTEM_UNDER_TEST: Human recombinant FAP (Homo sapiens, UniProt Q12884)
pIC50: > 8.00
--
COMPOUND: C[C@@H](O)[C@@H]1NC(=O)[C@@H]2CCCN2C(=O)[C@@H]2CCCN2C(=O)[C@@H](NC(=O)[C@H]2CCCO2)CSCc2cc(CSCCNC(=O)CN3CCN(CC(=O)O)CCN(CC(=O)O)CCN(CC(=O)O)CC3)cc(c2)CSC[C@@H](C(=O)O)NC(=O)[C@H](Cc2ccccc2)NC(=O)[C@H](CCC(N)=O)NC1=O
SYSTEM_UNDER_TEST: Human recombinant FAP (Homo sapiens, UniProt Q12884)
pIC50: 7.10 to 8.00
--
COMPOUND: CCCCNC(=O)N[C@H]1CSCc2cc(CSCCNC(=O)CN3CCN(CC(=O)O)CCN(CC(=O)O)CCN(CC(=O)O)CC3)cc(c2)CSC[C@@H](C(N)=O)NC(=O)[C@H](Cc2ccccc2)NC(=O)[C@H](CCC(N)=O)NC(=O)[C@H]([C@@H](C)O)NC(=O)[C@@H]2CCCN2C(=O)CN(C)C1=O [3BP-4621] ({NHBu-CO}-C[Sar]PTQFC-NH2; linker 1-7 via TBMB(SCH2CH2NH-DOTA))
SYSTEM_UNDER_TEST: Human recombinant FAP (Homo sapiens, UniProt Q12884)
pIC50: > 8.00
--
COMPOUND: C[C@@H](O)[C@@H]1NC(=O)[C@@H]2CCCN2C(=O)[C@@H]2CCCN2C(=O)[C@@H](NC(=O)[C@@H]2CCCO2)CSCc2cc(CSCCNC(=O)CN3CCN(CC(=O)O)CCN(CC(=O)O)CCN(CC(=O)O)CC3)cc(c2)CSC[C@@H](C(=O)O)NC(=O)[C@H](Cc2ccccc2)NC(=O)[C@H](CCC(N)=O)NC1=O
SYSTEM_UNDER_TEST: Human recombinant FAP (Homo sapiens, UniProt Q12884)
pIC50: 7.10 to 8.00
